tested on: YopH tyrosine phosphatase [Yersinia enterocolitica]; experiment: inhibition of Yersinia YopH phosphatase – biochemical, fluorescence Ex485/Em525, primary screen (AID 898); settings: hits give high values, concentration not given here
Among all 140,000 compounds or so, about 220 (0.16%) were called active. Many of the other results were omitted from the sample, so actives are more common in it than they were.
Hi there, I'd appreciate the recorded inhibition for every entry that follows.
Numbers only, in %.

smiles.representation | unit.text | endpoint.value
COC(=O)c1ccccc1NS(=O)(=O)c1ccc2[nH]c(=O)[nH]c2c1 | % | -13.2
Cc1ccc(N(Cc2cc3ccccc3[nH]c2=O)C(=O)c2cccs2)cc1 | % | -10.8
O=C(/C(=C/c1cccc(Cl)c1)c1nc2ccccc2[nH]1)c1ccccc1 | % | -25
O=S(=O)(ON(c1ccccc1)S(=O)(=O)c1ccccc1)c1ccccc1 | % | -36.9

// next entry
Inquiry: Reported inhibition for CCOc1ccc(Br)cc1S(=O)(=O)Nc1cccc(S(=O)(=O)N(CC)CC)c1 : what is it?
Reply text: -29.5

====

tested on: YopH tyrosine phosphatase [Yersinia enterocolitica]; experiment: inhibition of Yersinia YopH phosphatase – biochemical, fluorescence Ex485/Em525, primary screen (AID 898); settings: hits give high values, concentration not given here
The whole screen tested about 140,000 compounds, of which about 220 (0.16%) were called active. The sample holds actives, similar compounds and a random draw of the others, so the mix is not that of the screen.
Decide using inhibition: a value greater than or equal to -20% is TRUE, a smaller one is FALSE.

Previously resolved entries follow.
molecule | assigned.class
COc1ccc(-c2cc(C(F)(F)F)nc(SCC(=O)Nc3ccc4c(c3)OCO4)n2)cc1OC | FALSE
Cn1cnc(C(F)(F)F)c1-c1ccc([N+](=O)[O-])cc1 | FALSE
CC(C)(C)C(=O)NC(NC(=S)Nc1ccc(S(N)(=O)=O)cc1)C(Cl)(Cl)Cl (stereo not given) | TRUE

Now consider a different molecule.
Inquiry: Does the reported inhibition for COC1=CCC2([N+](=O)[O-])CN(CC(=O)O)CC1([N+](=O)[O-])C2 (stereo not given) fall at or above the -20% mark?
Reply text: FALSE

====

tested on: YopH tyrosine phosphatase [Yersinia enterocolitica]; assay: inhibition of Yersinia YopH phosphatase – biochemical, fluorescence Ex485/Em525, primary screen (AID 898); conditions: hits give high values, concentration not given here
Screen size: about 140,000 compounds; about 220 (0.16%) were called active. This is one part of a sample in which actives are shown more often than they occur.
value.kind: inhibition (%)
Give bare numbers, in %.

compound | inhibition / %
CCOC(=O)CN1C(=O)N[C@@H](c2ccc(Br)cc2)C(C(C)=O)=C1C | -19.8
N#Cc1ccc(C(=O)Nc2nc(-c3cccs3)c(C(=O)C(F)(F)F)s2)cc1 | -10.1

Below are some compounds; for each one, tell me its inhibition.
1. Cc1ccc(N(C(=O)c2ccc(CN3CCOCC3)o2)C(C(=O)NCCC(C)C)c2cccs2)c(C)c1 (configuration not stated)
2. Cc1ccc(NC(=O)Cn2cccc2C2=NC(c3ccccc3)CO2)c(C)c1 (configuration not stated)
3. O=[N+]([O-])c1ccc(N2CCNCC2)cc1NCc1cccnc1
4. Cc1ccc(OCc2nnc(SC3CCc4ccccc4C3=O)n2C)cc1 (configuration not stated)
5. CC1=C(C)CC(C(=O)NNC(=O)c2csc3c2CCC(C(C)(C)C)C3)C(C(=O)O)C1 (configuration not stated)
6. CCCN1C(=O)C(Cc2nc3ccccc3c(=O)n2-c2ccccc2)c2cc(C)ccc21 (configuration not stated)
7. CSc1c(SCc2ccccc2)cnn(Cc2ccccc2)c1=O
8. COCCNC(=O)c1ccccc1NS(=O)(=O)c1ccc(C)c([N+](=O)[O-])c1

Reply text:
1: -6.18; 2: -4.93; 3: -24.3; 4: -10.2; 5: -33.4; 6: -10.9; 7: -31.9; 8: -4.7

====

tested on: YopH tyrosine phosphatase [Yersinia enterocolitica]; test: inhibition of Yersinia YopH phosphatase – biochemical, fluorescence Ex485/Em525, primary screen (AID 898); conditions: hits give high values, concentration not given here
Screen size: about 140,000 compounds; about 220 (0.16%) were called active. The sample as a whole holds a higher share of actives than the screen did.
I'd appreciate it if you could supply inhibition values for the items below.

The cases that follow already have their inhibition on record.
molecule | inhibition
COc1ccc(Br)cc1CN(C)CC(=O)Nc1cc(Cl)cc(Cl)c1 | -5.01% (inactive)
Cc1ccc(NC(=O)CN(C)Cc2ccc(F)cc2)c([N+](=O)[O-])c1 | -24.9% (inactive)
Cc1ccc(N(C(=O)C(F)(F)F)C(C(=O)NC2CCCCC2)c2ccncc2)cc1C (stereo unspecified) | -8.07% (inactive)
Cc1ccc(S(=O)(=O)N(NC2=NS(=O)(=O)c3ccccc32)C(=O)c2ccccc2)cc1 | -28.4% (inactive)
Cc1ccc(C(=O)COC(=O)CCCC(=O)NC2CCCCC2)cc1[N+](=O)[O-] | -26.3% (inactive)

# next molecule below
Inquiry: Please look up its inhibition: COCCCN(C(=S)Nc1c(C)cc(C)cc1C)C(C)c1ccncc1 (stereo unspecified)
Reply text: -22.6% (inactive)

====

test system: YopH tyrosine phosphatase [Yersinia enterocolitica]; test: inhibition of Yersinia YopH phosphatase – biochemical, fluorescence Ex485/Em525, primary screen (AID 898); details: hits give high values, concentration not given here
Hit rate of the full screen: of about 140,000 compounds, about 220 (0.16%) were called active. The sample as a whole holds a higher share of actives than the screen did.
value.kind: inhibition

compound | inhibition
CC1(c2cccc([N+](=O)[O-])c2)CC(C)(C)N(C(=O)c2ccccc2)c2ccccc21 (configuration not stated) | -13.3% (inactive)
CCS(=O)(=O)Nc1cccc(-c2cc(-c3ccccc3)c3cc(C)ccc3n2)c1 | -8.31% (inactive)
COc1ccc(-n2c(C)cc(C(=O)CN3C(=O)NC4(CCc5ccccc54)C3=O)c2C)cc1 (configuration not stated) | -19.6% (inactive)
O=C(COC(=O)Cc1ccc(Br)cc1)Nc1c(F)c(F)c(F)c(F)c1F | -9.87% (inactive)
O=c1cc(-c2ccccc2)[nH]c2cc(F)ccc12 | -25.5% (inactive)
CCNC(=S)N1CCC(c2nc3cc(C)c(C)cc3[nH]2)CC1 | -17.7% (inactive)
CC(C)(C)C(=O)N1CCC[C@@]1(CO)C(=O)O | -12.8% (inactive)
COc1ccc2oc(-c3cccc(NC(=O)CSc4ccc(Cl)cc4)c3)nc2c1 | -28.2% (inactive)
C=CCNC(=O)/C=C/c1ccc(C(C)C)cc1 | -23.5% (inactive)
CCN(CC(=O)NC1CCS(=O)(=O)C1)S(=O)(=O)c1ccccc1 (configuration not stated) | -27.4% (inactive)

// batch mode: one inhibition value per listed entry
1. O=C(COc1nc2ccccc2nc1N1CCOCC1)NCC(F)(F)F
2. Cc1ccc2c(CC(=O)NCc3cccs3)coc2c1

Reply text:
["-21.6% (inactive)", "-29.9% (inactive)"]
